Assay: NCI Yeast Anticancer Drug Screen. Data for the mec2-1 strain (AID 157)
Details: S. cerevisiae mec2-1 strain, at 50.0 µM, hits give high values
Experimental: Growth inhibition of yeast strains with defined genetic alterations is measured as a screen for potential anti-cancer activity. Selected strains with alterations in DNA damage repair or cell cycle control were exposed to compounds and growth inhibition was measured relative to vehicle treated controls. The strain used in this assay is mec2-1
This is part of a sample that, as a whole, favours compounds with a hit. Of some 79,000 tested, about 15% had one in any assay. Calls of active or inactive are those of the source. No stated cut-off is given here; in the data, active means growth inhibition above about 70%; inactive means the rest.
Endpoint Name: growth inhibition

Compound: COc1ccc([N+](=O)[O-])c2c(C)cc(=O)[nH]c12
Obs Value: 19.4% (inactive)
//
Compound: Cn1c2c(c3ccccc31)C(=O)CC2(C)C
Obs Value: -4.8% (inactive)
//
Compound: CCOP(=O)(OCC)c1cc(NC(=O)c2cc(NC(=O)c3cc(NC(=O)Nc4cc(C(=O)Nc5cc(C(=O)Nc6cc(P(=O)(OCC)OCC)c7cccc(P(=O)(OCC)OCC)c7c6)n(C)c5)n(C)c4)cn3C)cn2C)cc2c(P(=O)(OCC)OCC)cccc12
Obs Value: -1.55% (inactive)
//
Compound: O=C1Oc2ccccc2C(=O)C1=Ic1ccccc1
Obs Value: 52.9% (inactive)
//
Compound: CCc1ccc(NC(=O)c2ccc(C(=O)Nc3ccc(CC)cc3)cc2)cc1
Obs Value: 6.6% (inactive)
//
Compound: CSC(=N)N1N=C2c3ccccc3CC[C@@H]2[C@@H]1c1ccccc1
Obs Value: -7.3% (inactive)
//
Compound: NS(=O)(=O)N1CN(S(N)(=O)=O)CN(S(N)(=O)=O)C1
Obs Value: 4.1% (inactive)
//
Compound: CCOC(=O)c1ccc(OC(=O)Nc2ccccc2)cc1
Obs Value: 6% (inactive)
//
Compound: CC(=O)Nc1ccc2c(c1)Cc1cc(NC(C)=O)c(Cl)cc1-2
Obs Value: 11.9% (inactive)
//
Compound: Cc1ccccc1OCC1COCN(C(C)(C)C)CO1 (configuration not stated)
Obs Value: -2.2% (inactive)
//
Compound: Cc1c(C(=O)C/C(=N\O)C(=O)Nc2cc(Cl)c(Cl)cc2Cl)[n+](=O)c2ccccc2n1[O-]
Obs Value: 14.3% (inactive)
//
Compound: Cc1cc(=O)n(-c2ccccc2)c(=O)n1-c1nc2ccccc2[nH]1
Obs Value: -8.4% (inactive)
//
Compound: CCC(=O)NC(Nc1cccc(F)c1)(C(F)(F)F)C(F)(F)F
Obs Value: -36.6% (inactive)
//
Compound: COC(=O)CCCC(Sc1ccccc1)C(=O)OC (configuration not stated)
Obs Value: 0.6% (inactive)
//
Compound: Cc1cc(=O)[nH]c2c(C)cc(Cl)cc12
Obs Value: -5.25% (inactive)
//
Compound: Nc1ccccc1/C=C(\C(=O)O)c1ccccc1
Obs Value: -4.45% (inactive)
//
Compound: Cc1ccc(NC(=S)SCc2ccc(Cl)c(Cl)c2)cc1Br
Obs Value: -6.45% (inactive)
//
Compound: ON=C1CCCCC1
Obs Value: 7.45% (inactive)
//
Compound: COc1ccc2cc(C(=O)Nc3ccc(O)c(C(=O)O)c3)ccc2c1OC
Obs Value: 0.5% (inactive)
//
Compound: N/N=C(\c1ccccc1)C(Nc1ccccc1)c1ccccc1 (configuration not stated)
Obs Value: -3.95% (inactive)
//
Compound: Cc1ccc(C)c(NC(=O)Nc2ccc(Nc3ccccc3)cc2)c1
Obs Value: 12.8% (inactive)
//
Compound: Cc1cc(NS(=O)(=O)c2ccc(Nc3c4ccccc4nc4c(C(=O)NCCN(C)C)cccc34)cc2)no1
Obs Value: 3.4% (inactive)
